protocol-text: Solubility of drugs in plain buffer and in PPO-PEG multi-arm block copolymer 10050 formulation
Assay type: physicochemical
reported-conditions: aqueous with cosolvent or surfactant or cyclodextrin, thermodynamic from solid; 50 mg PPO-PEG block copolymer 10050/drug formulation, 10 wt. % drug loading, in 1 ml phosphate buffer 0.1 M pH 7.4, 0.2 μm filtered
Procedure: After two hours of mixing, the mixture was filtered through 0.2 μm syringe filter. The drug concentration in the filtrate was determined by HPLC or UV using a standard curve.
measurement-label: solubility at 2 h
Quick note: number first, unit second.

Past entries and their recorded results:
INSERT INTO results (compound, measurement_label, observed_result) VALUES
  ('CC(=O)O[C@H]1C(=O)[C@@]2(C)[C@H]([C@H](OC(=O)c3ccccc3)[C@]3(O)C[C@H](OC(=O)[C@H](O)[C@@H](NC(=O)c4ccccc4)c4ccccc4)C(C)=C1C3(C)C)[C@]1(OC(C)=O)CO[C@@H]1C[C@@H]2O', 'solubility at 2 h', '2000 µg/mL'),
  ('COc1ccc2c(c1)c(CC(=O)O)c(C)n2C(=O)c1ccc(Cl)cc1', 'solubility at 2 h', '4000 µg/mL'),
  ('Cn1cc(C2=C(c3cn(C)c4cc([N+](=O)[O-])ccc34)C(=O)NC2=O)c2ccc([N+](=O)[O-])cc21', 'solubility at 2 h', '2600 µg/mL');

[ask] Given the compound CCCC(=O)OCOC(=O)C(C)(C)C [Pivaloyloxymethyl butyrate, pivaloyloxymethyl butyrate] , what is its reported solubility at 2 h?
[reply] 12000 µg/mL

====

protocol-text: Solubility of drugs in plain buffer and in PPO-PEG multi-arm block copolymer 10050 formulation
Assay type: physicochemical
reported-conditions: aqueous buffer, thermodynamic from solid; phosphate buffer, 0.1 M, pH 7.4; read-out: Solubility of Drug in Plain Buffer
Method: After two hours of mixing, the mixture was filtered through 0.2 μm syringe filter. The drug concentration in the filtrate was determined by HPLC or UV using a standard curve.
measurement-label: solubility

The cases that follow already have their solubility on record.
INSERT INTO measurements (compound, measurement_label, observed_result) VALUES
  ('COc1ccc2c(c1)c(CC(=O)O)c(C)n2C(=O)c1ccc(Cl)cc1 [Indomethacin, indomethacin]', 'solubility', '88 µg/mL'),
  ('Cn1cc(C2=C(c3cn(C)c4cc([N+](=O)[O-])ccc34)C(=O)NC2=O)c2ccc([N+](=O)[O-])cc21 [MNIPD]', 'solubility', '< 0.5 µg/mL');

Turning now to a further compound:
[ask] // returns reported solubility for input CC(=O)O[C@H]1C(=O)[C@@]2(C)[C@H]([C@H](OC(=O)c3ccccc3)[C@]3(O)C[C@H](OC(=O)[C@H](O)[C@@H](NC(=O)c4ccccc4)c4ccccc4)C(C)=C1C3(C)C)[C@]1(OC(C)=O)CO[C@@H]1C[C@@H]2O [Paclitaxel, paclitaxel]
[reply] < 1 µg/mL
